Measured values drawn from ChEMBL document CHEMBL3526046 for this set.

# Measurement Description: Inhibition of group 2 mGluR (unknown origin)
# Set-up: species or system Homo sapiens
Measured Metric: IC50

So what does the record say about IC50 for Cc1csc(NC(=O)c2cc(F)cc(Oc3cncnc3)c2)n1 ?
≥ 10 µM

----------
# Measurement Description: Intrinsic clearance in Sprague-Dawley rat hepatic cytosol at 1 uM
# Assay type: ADME, tissue-based, Liver
Measured Metric: CLint at 1 µM (mL/min/kg)
One number for each entry, in mL/min/kg.

So what does the record say about CLint at 1 µM for Cc1csc(NC(=O)c2cc(F)cc(Oc3cncnc3)c2)n1 ?
16

----------
# Measurement Description: Intrinsic clearance in Sprague-Dawley rat cryopreserved hepatocytes at 1 uM
# Type: ADME, cell-based, Hepatocyte
Measured Metric: CLint at 1 µM (mL/min/kg)
One number for each entry, in mL/min/kg.

So what does the record say about CLint at 1 µM for Cc1csc(NC(=O)c2cc(F)cc(Oc3cncnc3)c2)n1 ?
96

----------
# Measurement Description: Plasma clearance in Sprague-Dawley rat at 1 mg/kg, iv administered as single dose
# Type: ADME, organism-based
# Design: dose 1 mg/kg, route intravenous
Measured Metric: clearance (mL/min/kg)
Give bare numbers, in mL/min/kg.

So what does the record say about clearance for Cc1csc(NC(=O)c2cc(F)cc(Oc3cncnc3)c2)n1 ?
43

----------
# Measurement Description: Intrinsic clearance in human hepatic cytosol at 1 uM
# Type: ADME, tissue-based, Liver
Measured Metric: CLint at 1 µM (mL/min/kg)
One number for each entry, in mL/min/kg.

So what does the record say about CLint at 1 µM for Cc1csc(NC(=O)c2cc(F)cc(Oc3cncnc3)c2)n1 ?
3.7
